Protocol Details: NCI Yeast Anticancer Drug Screen. Data for the cln2 rad14 strain (AID 165);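 note: 0% = growth equal to vehicle treated cultures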
Experimental Conditions: S. cerevisiae cln2 rad14 strain, at 5.0 µM (retest, dose inferred, filed as 0.5), active compounds read high
About 79,000 compounds went through this panel and 15% of them were active in at least one assay; those are over-represented in the sample as a whole.
Readout: growth inhibition (%)
Write down the numeric answer in % and omit the unit.

- Molecule: "CN(Cc1cnc2nc(N)nc(N)c2n1)c1ccc(C(=O)N[C@@H](CCC(=O)O)C(=O)O)cc1"
  growth inhibition (%): -1
- Molecule: "CC(=O)Nc1ccc(SC(C)=O)cc1"
  growth inhibition (%): 44
- Molecule: "CCC(=O)OCCn1c2nc(=O)[nH]c(=O)c-2nc2cc(C)c(C)cc21"
  growth inhibition (%): -1
- Molecule: "CC(=O)Nc1ccc2c(c1)C(=Nc1ccc(C(=O)O)cc1)c1ccccc1-2"
  growth inhibition (%): -8

Query: What does the data say about its growth inhibition? Entry: OCC1OC(OCC(O)C(O)C(O)C(/C=N/Nc2ccccc2)=N/Nc2ccccc2)C(O)C(O)C1O (stereo not given)
Reply: 7

---

Protocol Details: NCI Yeast Anticancer Drug Screen. Data for the mec2-1 strain (AID 157)
Experimental Conditions: S. cerevisiae mec2-1 strain, at 11.0 µM
The panel holds about 79,000 compounds, 15% with a hit somewhere; the sample as a whole holds those more often. The source made the active and inactive calls. Rule as the data show it: active = growth inhibition above about 70%; inactive = the rest.
Your response should consist of one outcome taken from active, inactive

Example entries and their recorded answers appear below.
- Compound: "OC1CSCCCSCCSCCCSC1"
  Category: "inactive"
- Compound: "COc1ccccc1/C=C1\\Sc2scc(-c3cccc([N+](=O)[O-])c3)[n+]2C1=O"
  Category: "active"
- Compound: "CCOC(=O)c1cc(-c2ccc(Cl)cc2)c([N+](=O)[O-])n1C"
  Category: "inactive"

Query: Per the records of this test, what outcome belongs to c1ccc2c(c1)c1ncccc1c1nccnc21 ?
Reply: inactive

Query: Per the records of this test, what outcome belongs to O=[N+]([O-])c1cc2no[n+]([O-])c2cc1N1CCCCC1 ?
Reply: active

Query: Per the records of this test, what outcome belongs to CSC(=S)Nc1cc(C)ccn1 ?
Reply: inactive

Query: Per the records of this test, what outcome belongs to CC(C(=O)N1C(=O)N(C(=O)[C@H](C)C(O)c2ccccc2)[C@H](c2ccccc2)[C@H]1c1ccccc1)[C@@H](O)c1ccccc1 (stereo not given in full) ?
Reply: inactive

Query: Per the records of this test, what outcome belongs to Cn1ccnc1Oc1ccc(Cl)cc1 ?
Reply: inactive

---

Protocol Details: NCI Yeast Anticancer Drug Screen. Data for the mec2-1 strain (AID 157)
Experimental Conditions: S. cerevisiae mec2-1 strain, at 5.0 µM (retest, dose inferred, filed as 0.5)
The panel holds about 79,000 compounds, 15% with a hit somewhere; the sample as a whole holds those more often. Activity calls are given as the source filed them. No stated cut-off is given here; in the data, active means growth inhibition above about 70%; inactive means the rest.
Your response should consist of one outcome taken from active, inactive

- Compound: "CCC(=O)Oc1c(Cl)cc(Cl)c2ccccc12"
  Category: "inactive"

Query: Per the records of this test, what outcome belongs to Clc1ccccc1C1OC1c1ccccc1Cl (stereo unspecified) ?
Reply: inactive

Query: Per the records of this test, what outcome belongs to CCCCCCCCCCCC(=O)N(C)C ?
Reply: inactive

Query: Per the records of this test, what outcome belongs to CN(C)c1nc2sc3c(c2c(=O)o1)CCCC3 ?
Reply: inactive

Query: Per the records of this test, what outcome belongs to Cc1c(Cl)ccc2c1S(=O)(=O)c1cccc(Cl)c1-2 ?
Reply: active

Query: Per the records of this test, what outcome belongs to CCN(CC)C(C)(C)C(=O)/C=C/c1ccccc1 ?
Reply: inactive

---

Protocol Details: NCI Yeast Anticancer Drug Screen. Data for the wt2 strain (AID 169);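 note: 0% = growth of vehicle-treated yeast cultures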
Experimental Conditions: S. cerevisiae wt2 strain growth inhibition; at 3.7 µM; active compounds read high
About 79,000 compounds went through this panel and 15% of them were active in at least one assay; those are over-represented in the sample as a whole.
Readout: growth inhibition (%)
Write down the numeric answer in % and omit the unit.

A selection of reference data follows.
- Molecule: "Oc1c(Br)cc(Br)cc1C1CCCCC1"
  Readout: "growth inhibition"
  Unit Tag: "%"
  Data Value: -22
- Molecule: "COC(=O)C1=C(C)NC(C)=C(C(=O)OCCCN2CCC(c3ccccc3)(c3ccccc3)CC2)C1c1cccc([N+](=O)[O-])c1 (stereo unspecified)"
  Readout: "growth inhibition"
  Unit Tag: "%"
  Data Value: 25
- Molecule: "CCOP(=O)(OCC)C(Cc1ccccc1)N=C(c1ccccc1)c1ccccc1 (stereo unspecified)"
  Readout: "growth inhibition"
  Unit Tag: "%"
  Data Value: 6
- Molecule: "CN(C)C[C@H]1CC[C@@H](CN(C)C)C1=O"
  Readout: "growth inhibition"
  Unit Tag: "%"
  Data Value: -45
- Molecule: "OCC1OC(OCC(O)C(O)C(O)C(/C=N/Nc2ccccc2)=N/Nc2ccccc2)C(O)C(O)C1O (stereo unspecified)"
  Readout: "growth inhibition"
  Unit Tag: "%"
  Data Value: 7
- Molecule: "C/C(=N\\NC(=S)N1CCCCC1)c1cccc(C)n1"
  Readout: "growth inhibition"
  Unit Tag: "%"
  Data Value: 94
- Molecule: "O=C1NC(=O)C2C3C=CC(C3)C12 (stereo unspecified)"
  Readout: "growth inhibition"
  Unit Tag: "%"
  Data Value: 40
- Molecule: "Cc1nc(-c2ccccc2)c(-c2ccccc2)s1"
  Readout: "growth inhibition"
  Unit Tag: "%"
  Data Value: -16

Query: What does the data say about its growth inhibition? Entry: CCCc1cc(C(=O)OCC)cc(CCC)c1O
Reply: 4

Query: What does the data say about its growth inhibition? Entry: Cc1[nH]c2ccccc2c1C(c1ccc(N)cc1)c1c(C)[nH]c2ccccc12
Reply: -11

Query: What does the data say about its growth inhibition? Entry: CSC(=S)Nc1cc(C)ccn1
Reply: -13

---

Protocol Details: NCI Yeast Anticancer Drug Screen. Data for the CLN2oe strain (AID 163);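 note: 0% = growth of vehicle-only control cultures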
Experimental Conditions: S. cerevisiae CLN2oe strain, at 11.0 µM, active compounds read high
Compounds without any hit were thinned out: in the full panel of roughly 79,000, 15% have a hit.
Readout: growth inhibition (%)
Write down the numeric answer in % and omit the unit.

A selection of reference data follows.
- Compound: "Cc1ccc(S(=O)(=O)NCCSS(=O)(=O)c2ccc(C)cc2)cc1"
  growth inhibition (%): -6
- Compound: "CC(C)/C(Cl)=N\\OC(=O)Nc1cccc(Cl)c1"
  growth inhibition (%): -6
- Compound: "CC(/C=C/c1ccc(Cl)cc1)=N\\NC(=S)NCC(C)C"
  growth inhibition (%): -8
- Compound: "COc1ccc(O)c(/C=N\\Nc2ccccc2)c1"
  growth inhibition (%): -14
- Compound: "CSC(=S)Nc1cc(C)ccn1"
  growth inhibition (%): 31
- Compound: "CCCCCCCC1(N=[N+]=[N-])C(=O)c2ccccc2N(C)C1=O (configuration not stated)"
  growth inhibition (%): 23

Query: What does the data say about its growth inhibition? Entry: CCOC(=O)c1cc([N+](=O)[O-])cc([N+](=O)[O-])c1Sc1ncnc2nc[nH]c12
Reply: -23

---

Protocol Details: NCI Yeast Anticancer Drug Screen. Data for the rad50 strain (AID 155);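 note: 0% = growth of vehicle-only cultures of the same strain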
Experimental Conditions: S. cerevisiae rad50 strain growth inhibition; at 100.0 µM
Compounds without any hit were thinned out: in the full panel of roughly 79,000, 15% have a hit. The source made the active and inactive calls. No stated cut-off is given here; in the data, active means growth inhibition above about 70%; inactive means the rest.
Your response should consist of one outcome taken from active, inactive

Example entries and their recorded answers appear below.
- Molecule: "Cc1c(C2=C(Br)C(=O)N(C)C2=O)c(=O)n(C)c(=O)n1C"
  Category: "active"
- Molecule: "c1ccc2c(c1)c1ncccc1c1nccnc21"
  Category: "active"
- Molecule: "O=C(NC(Nc1ccc(F)c(Cl)c1)(C(F)(F)F)C(F)(F)F)C(C(F)(F)F)C(F)(F)F"
  Category: "active"
- Molecule: "Cc1ccc2ccc(O)cc2c1"
  Category: "active"
- Molecule: "O=C1c2ccccc2C(=O)c2c(NC3CCCCC3)ccc(Nc3ccc(S(=O)(=O)O)cc3)c21"
  Category: "inactive"

Query: Per the records of this test, what outcome belongs to Cn1c2ccccc2c(=O)c2cc(NC(=O)CCCCC(=O)Nc3ccc4c(c3)c(=O)c3ccccc3n4C)ccc21 ?
Reply: active

Query: Per the records of this test, what outcome belongs to O=C([O][Sn]([O]C(=O)c1ccccc1)([c]1ccccc1)[c]1ccccc1)c1ccccc1 ?
Reply: active

Query: Per the records of this test, what outcome belongs to CC(C)(Br)C(=O)/C=C/c1ccc(Cl)c(Cl)c1 ?
Reply: inactive

Query: Per the records of this test, what outcome belongs to CC1=C(C)Cc2c(O)ccc(O)c2C1 ?
Reply: active

Query: Per the records of this test, what outcome belongs to C[CH2][Sn]([CH2]C)([O]C(=O)C(OC(C)=O)c1ccccc1)[O]C(=O)C(OC(C)=O)c1ccccc1 (stereo not given) ?
Reply: active
